Exercise: for every item that follows, state its recorded viability, T/C.
# Tested on: 422866-222-R5-J1-PDC spheroid viability
# procedure_summary: Anticancer human tumor 422866-222-R5-J1-PDC patient-derived pancreatic adenocarcinoma cell line growth inhibition [CLK]
# condition_label: second compound 0.316 µM; first compound 0.01 µM; stronger effect = lower value; spheroids with HUVEC and MSC

# count of solved cases: 3
[
  {
    "compound": "CCN1CCN(Cc2ccc(Nc3ncc(F)c(-c4cc(F)c5nc(C)n(C(C)C)c5c4)n3)nc2)CC1 + CNC(=O)c1ccc(Nc2nc(OC3CCCC3)c3c(-c4ccc5nc(C)oc5c4)c[nH]c3n2)c(OC)c1",
    "measured_parameter": "viability, T/C",
    "value_measured": "58.9%"
  },
  {
    "compound": "COc1c(OCCCN2CCOCC2)ccc2c3n(c(=NC(=O)c4cnc(N)nc4)nc12)CCN3 + CN1CCN(c2cc(C(=O)Nc3cc4cc(-c5cnn(C)c5)ccc4cn3)ccn2)CC1",
    "measured_parameter": "viability, T/C",
    "value_measured": "63%"
  },
  {
    "compound": "CCc1c2c(nc3ccc(O)cc13)-c1cc3c(c(=O)n1C2)COC(=O)[C@]3(O)CC + CNC(=O)c1ccc(Nc2nc(OC3CCCC3)c3c(-c4ccc5nc(C)oc5c4)c[nH]c3n2)c(OC)c1",
    "measured_parameter": "viability, T/C",
    "value_measured": "33.2%"
  }
]

For each of the compounds below, state viability, T/C.
1. Cn1ncnc1[C@H]1c2n[nH]c(=O)c3cc(F)cc(c23)N[C@@H]1c1ccc(F)cc1 + CNC(=O)c1ccc(Nc2nc(OC3CCCC3)c3c(-c4ccc5nc(C)oc5c4)c[nH]c3n2)c(OC)c1
2. CCN1CCN(Cc2ccc(Nc3ncc(F)c(-c4cc(F)c5nc(C)n(C(C)C)c5c4)n3)nc2)CC1 + CN1CCN(c2cc(C(=O)Nc3cc4cc(-c5cnn(C)c5)ccc4cn3)ccn2)CC1

68%
84.9%

---

# Test system: 422866-222-R5-J1-PDC spheroid viability
# procedure_summary: Anticancer human tumor 422866-222-R5-J1-PDC cell line growth inhibition [CLK];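 note: spheroids exposed to agents for seven days before readout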
# condition_label: second compound 0.316 µM; first compound 0.1 µM; stronger effect = lower value; spheroids with HUVEC and MSC
measured_parameter: viability, T/C (%)
Answers are plain numbers, in %.

# count of solved cases: 9
[
  {
    "molecule": "O=c1[nH]cc(F)c(=O)[nH]1 + CN1CCN(c2cc(C(=O)Nc3cc4cc(-c5cnn(C)c5)ccc4cn3)ccn2)CC1",
    "viability, T/C / %": 100
  },
  {
    "molecule": "C=CC(=O)N1CCN(c2nc(=O)n(-c3c(C)ccnc3C(C)C)c3nc(-c4c(O)cccc4F)c(F)cc23)C(C)C1 (stereo not given) + CN1CCN(c2cc(C(=O)Nc3cc4cc(-c5cnn(C)c5)ccc4cn3)ccn2)CC1",
    "viability, T/C / %": 35.4
  },
  {
    "molecule": "CC(CO)NC(=O)c1cc(-c2ccc(Cl)cc2)nn(-c2cnn(C)c2)c1=O (stereo not given) + CN1CCN(c2cc(C(=O)Nc3cc4cc(-c5cnn(C)c5)ccc4cn3)ccn2)CC1",
    "viability, T/C / %": 93.5
  },
  {
    "molecule": "CC(=O)O[C@H]1C(=O)[C@@]2(C)[C@H]([C@H](OC(=O)c3ccccc3)[C@]3(O)C[C@H](OC(=O)[C@H](O)[C@@H](NC(=O)c4ccccc4)c4ccccc4)C(C)=C1C3(C)C)[C@]1(OC(C)=O)CO[C@@H]1C[C@@H]2O + CNC(=O)c1ccc(Nc2nc(OC3CCCC3)c3c(-c4ccc5nc(C)oc5c4)c[nH]c3n2)c(OC)c1",
    "viability, T/C / %": 68
  },
  {
    "molecule": "CC(CO)NC(=O)c1cc(-c2ccc(Cl)cc2)nn(-c2cnn(C)c2)c1=O (stereo not given) + CNC(=O)c1ccc(Nc2nc(OC3CCCC3)c3c(-c4ccc5nc(C)oc5c4)c[nH]c3n2)c(OC)c1",
    "viability, T/C / %": 73.8
  },
  {
    "molecule": "CCc1c2c(nc3ccc(O)cc13)-c1cc3c(c(=O)n1C2)COC(=O)[C@]3(O)CC + CNC(=O)c1ccc(Nc2nc(OC3CCCC3)c3c(-c4ccc5nc(C)oc5c4)c[nH]c3n2)c(OC)c1",
    "viability, T/C / %": 38.5
  },
  {
    "molecule": "COc1c(OCCCN2CCOCC2)ccc2c3n(c(=NC(=O)c4cnc(N)nc4)nc12)CCN3 + CN1CCN(c2cc(C(=O)Nc3cc4cc(-c5cnn(C)c5)ccc4cn3)ccn2)CC1",
    "viability, T/C / %": 35.5
  },
  {
    "molecule": "COc1c(OCCCN2CCOCC2)ccc2c3n(c(=NC(=O)c4cnc(N)nc4)nc12)CCN3 + CNC(=O)c1ccc(Nc2nc(OC3CCCC3)c3c(-c4ccc5nc(C)oc5c4)c[nH]c3n2)c(OC)c1",
    "viability, T/C / %": 23.9
  },
  {
    "molecule": "CCCS(=O)(=O)Nc1ccc(F)c(C(=O)c2c[nH]c3ncc(-c4ccc(Cl)cc4)cc23)c1F + CNC(=O)c1ccc(Nc2nc(OC3CCCC3)c3c(-c4ccc5nc(C)oc5c4)c[nH]c3n2)c(OC)c1",
    "viability, T/C / %": 77.2
  }
]

Proceed to the following item.
Entry C=CC(=O)N1CCN(c2nc(=O)n(-c3c(C)ccnc3C(C)C)c3nc(-c4c(O)cccc4F)c(F)cc23)C(C)C1 (stereo not given) + CNC(=O)c1ccc(Nc2nc(OC3CCCC3)c3c(-c4ccc5nc(C)oc5c4)c[nH]c3n2)c(OC)c1 has what viability, T/C?
30.8

Hello, the source for this data is PubChem BioAssay AID2060603, in case you need it.
